Attribute: fluorescence slope
target: Voltage-gated potassium channel subunit beta-2 (Rattus norvegicus); assay: inhibitors of rat Kvbeta2 reductase activity – biochemical, NADPH fluorescence, primary screen (AID 622); conditions: recombinant KvBeta, 4-cyanobenzaldehyde reduction, at 10 µM, stronger effect = higher value;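 also: slope of raw intensity against log time taken from 70 to 1610 s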
In your answer, state the number alone without any accompanying words.

// below: answered compounds
| compound | target_entity | fluorescence slope |
| --- | --- | --- |
| O=C(NCc1ccccc1)C1CCN(S(=O)(=O)c2cccc3cccnc23)CC1 | Voltage-gated potassium channel subunit beta-2 (Rattus norvegicus) | -0.57 |
| COc1ccc(N2CCN(CCNS(=O)(=O)c3cccc4nsnc34)CC2)cc1 | Voltage-gated potassium channel subunit beta-2 (Rattus norvegicus) | -0.443 |
| Nc1c(C(=O)NCc2ccco2)nnn1Cc1ccccc1 | Voltage-gated potassium channel subunit beta-2 (Rattus norvegicus) | -0.399 |
| COC(=O)Cc1[nH]nc2c1C(C1C=CCCC1)C(C#N)=C(N)O2 (stereo unspecified) | Voltage-gated potassium channel subunit beta-2 (Rattus norvegicus) | -0.41 |
| COc1ncnc2c1N=C1CC(C)(C)CC(N)=C1S2 | Voltage-gated potassium channel subunit beta-2 (Rattus norvegicus) | -0.37 |

Next compound, please.
Lab note: need fluorescence slope for NC1=NC(c2ccc(Cl)cc2)n2c(nc3ccccc32)N1 (stereo unspecified) on Voltage-gated potassium channel subunit beta-2 (Rattus norvegicus), anyone have it?
-0.584

---

Attribute: fluorescence slope
biological target: Voltage-gated potassium channel subunit beta-2 (Rattus norvegicus) (UniProt P62483); assay: inhibitors of rat Kvbeta2 reductase activity – biochemical, NADPH fluorescence, primary screen (AID 622); settings: recombinant KvBeta, 4-cyanobenzaldehyde reduction, at 10 µM, stronger effect = higher value;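 also: slope of raw intensity against log time taken from 70 to 1610 s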
Sequence (P62483 whole entry, looked up): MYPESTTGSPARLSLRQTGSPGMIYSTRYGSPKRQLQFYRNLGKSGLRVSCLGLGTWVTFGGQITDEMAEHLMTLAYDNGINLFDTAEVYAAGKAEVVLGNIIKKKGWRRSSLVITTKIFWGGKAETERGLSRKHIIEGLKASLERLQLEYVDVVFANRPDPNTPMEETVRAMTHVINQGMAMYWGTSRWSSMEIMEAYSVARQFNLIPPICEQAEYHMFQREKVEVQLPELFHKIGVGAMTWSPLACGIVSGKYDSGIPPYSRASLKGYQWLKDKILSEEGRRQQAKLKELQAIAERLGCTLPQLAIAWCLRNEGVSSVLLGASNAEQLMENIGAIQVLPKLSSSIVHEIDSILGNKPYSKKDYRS
In your answer, state the number alone without any accompanying words.

// below: answered molecules
| molecule | fluorescence slope |
| --- | --- |
| COc1ccc(CN(C(=O)CN2C(=O)COc3ccccc32)C2CCCC2)c(OC)c1 | -0.435 |
| CCOC(=O)CSc1nc2cc(C(=O)NCc3ccco3)ccc2c(=O)n1C1CCCCC1 | -0.397 |
| COc1ccc(C(=O)OC(COc2ccccc2)Cn2ccnc2)cc1 (stereo unspecified) | -0.291 |
| O=C(CSc1nc2cc(S(=O)(=O)N3CCOCC3)ccc2o1)NC1CCCc2ccccc21 (stereo unspecified) | -0.363 |
| CN1C(=O)C(O)(CC(=O)c2ccc(F)cc2)c2cc(Br)ccc21 (stereo unspecified) | -0.436 |

Fill in the blank: the reported fluorescence slope of CCCC1C(C#N)=C(N)Oc2n[nH]c(C(C)(C)C)c21 (stereo unspecified) is ____.
-0.571

Fill in the blank: the reported fluorescence slope of CCOC(=O)c1oc2c(CN3CCN(C)CC3)c(O)ccc2c(=O)c1-c1ccccc1OC is ____.
-0.61

---

test: reduction of polyQ htt aggregates in cells – imaging, exon1htt(103Q)mCFP cells, high-content imaging, primary screen (AID 483); conditions: exon1htt(103Q)mCFP cell line, aggregate imaging, at 2 µM;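 also: compound exposure lasted 3 days before fixation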
Activity calls are given as the source filed them.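 Rule for the calls: active = visual image review flags a hit and inhibition of aggregation exceeds 20%; inconclusive = visual hit but inhibition at or below 20%; inactive = no hit on visual image review.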
Write down the outcome that applies. Available outcomes: active, inactive

Solved entries:
| compound | assigned_label |
| --- | --- |
| COC(=O)c1ccccc1NC(=O)C12CCC(C)(C(=O)O1)C2(C)C (stereo unspecified) | inactive |
| Cc1sc2nc3n(c(=O)c2c1C)NC(=O)CC3 | inactive |
| COc1ccc(-c2cc(N3CCCC3)n3ncnc3n2)cc1 | inactive |
| Cc1ccccc1NC(=O)CSc1nnc(Cc2cccn2C)n1-c1ccc(F)cc1 | inactive |
| CC(C)(C)NC(=O)CN(Cc1cccs1)C(=O)c1csnn1 | active |

Assay result, entry O=C(NCC1COc2ccccc2O1)c1ccc(NC(=O)c2ccco2)cc1 (stereo unspecified) — outcome?
inactive

Assay result, entry COc1cc(C(Nc2ccc3c(c2)OCO3)C(=O)NC2CCCCC2)cc(OC)c1OC (stereo unspecified) — outcome?
inactive

Assay result, entry CC(=O)c1cc2c(cc1NC(=O)CN1CCN(C(=O)c3ccco3)CC1)OCO2 — outcome?
inactive

Assay result, entry Cc1cc(N2CCN(C)CC2)nc(N2CCOCC2)n1 — outcome?
inactive

Assay result, entry CCOC(=O)c1[nH]c(C)c(C(=O)Nc2ccccc2C)c1C — outcome?
inactive

Assay result, entry Cc1onc(-c2ccccc2)c1C(=O)NCCN1CCOCC1 — outcome?
inactive

---

Attribute: inhibition
test: blockers of RIG-like receptor reporter activation – cell-based, Sendai virus stimulus, luciferase, 10K MLSCN set, TLR/RLR signaling modifier project, primary screen (AID 602276); conditions: HEK293 RL24 IRF3 luciferase reporter, at 10 µM, stronger effect = higher value;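 also: firefly luciferase from ISG56 promoter only with Renilla not read in this screen; 0% = Sendai virus plus DMSO and 100% = medium plus DMSO without virus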
Activity calls are given as the source filed them.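 The calls were made as follows: active = inhibition at or above 50% at 10 µM; inactive = inhibition below 50%.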

| molecule | measured_value |
| --- | --- |
| CCOc1ccc(Cl)cc1S(=O)(=O)N1CCCC1 | 17% (inactive) |
| COc1ccc(CN2C(=O)CN=C2Nc2ccc(C)cc2C)cc1 | 16.8% (inactive) |
| Cc1cc(C)n(CCCNC(=O)c2ccc3c(c2)NC(=O)CS3)n1 | 14.3% (inactive) |
| CCCSc1nnc2nc3c(nn12)c1ccccc1n3C | 5.91% (inactive) |
| Cc1nn(-c2nc3ccccc3[nH]2)c(N)c1-c1ccccc1 | -38.3% (inactive) |
| O=C(OCC#CCSc1nc2ccccc2o1)c1ccco1 | -2.28% (inactive) |
| COc1ccc(NC(=O)Cn2nnc(-c3ccccc3F)n2)cc1Cl | 7.23% (inactive) |
| COc1ccc(S(=O)(=O)Nc2cccc(C)n2)c2ccccc12 | -6.27% (inactive) |

Fill in the blank: the reported inhibition of COc1ccc(C(=O)CSc2nnc(CNc3ccc(C)cc3C)o2)cc1 is ____.
14.6% (inactive)

Fill in the blank: the reported inhibition of O=P(O)(O)C(O)C(F)(F)C(F)(F)C(F)(F)C(F)F (configuration not stated) is ____.
19.8% (inactive)

Fill in the blank: the reported inhibition of CCOC(=O)c1cc2ccc(OC)c(OC)c2c(=O)s1 is ____.
-11.9% (inactive)

Fill in the blank: the reported inhibition of CC(C)CCSc1nc2c(c(=O)[nH]c(=O)n2C)n1CCCc1ccccc1 is ____.
10.3% (inactive)

---

experiment: endothelial E-selectin expression blockers – imaging, HUVEC, immunofluorescence, MLSMR starter and 10KST1 sets, primary screen (AID 487); settings: HUVEC TNFalpha-induced E-selectin immunofluorescence imaging, at 2 µM; measured here: cell number, toxicity;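 also: 100% = median nuclei count of all wells on the same plate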
measurement_name: nuclei count (%)
Give a bare numeral; the unit % is implied.

// below: answered molecules
| molecule | measured_value |
| --- | --- |
| Cc1cc(C(=O)Nc2c(F)cc(F)cc2Br)no1 | 103 |
| CC(=O)C1=C(O)C(=O)N(C2CCCCC2)C1c1ccccc1 (configuration not stated) | 176 |
| O=C(CSC1=NCCS1)NCc1ccco1 | 108 |
| CCCC(=O)N1CCN(c2ccc(NC(=O)c3ccc(Br)o3)cc2)CC1 | 116 |
| COc1ccc(CCN2C(=O)CC(N3CCOCC3)C2=O)cc1 (configuration not stated) | 102 |
| Cc1cc(=O)[nH]c(S/C=C/c2ccccc2)n1 | 80.7 |
| CC(=O)c1cccc(NC(=O)CCNS(=O)(=O)c2cccc3nsnc23)c1 | 107 |
| CCOC(=O)C1=C(CC)Nc2ccccc2N=C1NC(=O)Cn1cnc2ccccc2c1=O | 123 |
| CCOc1nc(-c2ccccc2O)nc2ccccc12 | 116 |
| Cn1c(C(=O)NCc2cccnc2)cc2sccc21 | 110 |

Fill in the blank: the reported nuclei count of COC(=O)Cn1c(CCS(=O)(=O)c2ccc(C)cc2)nc2ccccc21 is ____.
105

Fill in the blank: the reported nuclei count of c1cncc(-c2nc3c4ccccc4nc(N4CCC(N5CCCCC5)CC4)n3n2)c1 is ____.
98.2

---

molecular target: Voltage-gated potassium channel subunit beta-2 (Rattus norvegicus) (UniProt P62483); experiment: enhancers of rat Kvbeta2 NADPH turnover – biochemical, NADPH fluorescence, primary screen (AID 623); conditions: Recombinant KvBeta, NADPH fluorescence decrease slope, 10 min; at 10 µM; stronger effect = lower value;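 also: fluorescence intensity change per second fitted from 20 to 320 s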
Attribute: NADPH fluorescence slope
In your answer, state the number alone without any accompanying words.

| molecule | NADPH fluorescence slope |
| --- | --- |
| CC(=O)Nc1ccc(S(=O)(=O)N(C2=NCC(C)S2)c2ccccc2)cc1 (stereo not drawn) | -1.6e-05 |

Fill in the blank: the reported NADPH fluorescence slope of CCOc1ccccc1NC(=O)C1CCCN(S(=O)(=O)c2cccc3cccnc23)C1 (stereo not drawn) is ____.
-3.3e-05

Fill in the blank: the reported NADPH fluorescence slope of COc1ccc(OC)c2[nH]c(=O)c(CCNC(=O)CC(C)C)cc12 is ____.
-4.7e-05

Fill in the blank: the reported NADPH fluorescence slope of COc1ccc(C(=O)c2coc3ccc(O)c(CN4CCCCC4)c23)cc1 is ____.
-1.2e-05

Fill in the blank: the reported NADPH fluorescence slope of Cc1onc(-c2ccccc2Cl)c1C(=O)Nc1cnn(Cc2ccccc2)c1 is ____.
6.7e-06

Fill in the blank: the reported NADPH fluorescence slope of CCN1CCN(Cc2ccc(NC(=O)Nc3ccccc3)cc2)CC1 is ____.
-1.7e-05

Fill in the blank: the reported NADPH fluorescence slope of CN(C)C(=O)COc1ccc2cc(-c3ccccc3)c(=O)oc2c1 is ____.
0

Fill in the blank: the reported NADPH fluorescence slope of CC12C(=O)N(CCC(=O)O)C(=O)C1C1C=CC2C1 (stereo not drawn) is ____.
-4.5e-05

Numbers sourced from PubChem BioAssay.
